Biological target: human PAH with the R408W mutation (Homo sapiens, UniProt P00439, R408W)
Construct: expressed in transfected cells
Sequence (P00439 whole entry R408W): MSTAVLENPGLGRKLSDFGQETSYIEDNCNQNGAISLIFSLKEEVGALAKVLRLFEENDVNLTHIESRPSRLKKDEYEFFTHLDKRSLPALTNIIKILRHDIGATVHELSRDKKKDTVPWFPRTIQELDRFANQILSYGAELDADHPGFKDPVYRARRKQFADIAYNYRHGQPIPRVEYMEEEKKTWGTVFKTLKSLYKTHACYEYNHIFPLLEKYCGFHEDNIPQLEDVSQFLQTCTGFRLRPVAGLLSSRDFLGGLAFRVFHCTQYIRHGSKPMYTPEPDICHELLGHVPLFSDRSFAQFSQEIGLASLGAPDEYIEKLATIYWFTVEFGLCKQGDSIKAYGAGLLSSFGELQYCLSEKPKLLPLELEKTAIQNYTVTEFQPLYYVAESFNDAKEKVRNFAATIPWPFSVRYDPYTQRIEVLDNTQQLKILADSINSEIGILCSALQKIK
Assay: Cell Based Phenylalanine Flux Assay;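 note: after compound treatment, cells received sepiapterin plus isotope-labelled Phenylalanine for 4 hours, then labelled Tyrosine in the medium was quantified, 10-point 2-fold dilution series run in duplicate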
Settings: A375 cells expressing human R408W PAH; 24 hrs compound incubation; 13C-Tyrosine by LC-MS; average where tested multiple times; read-out: AC50
METRIC NAME: AC50

Study these solved cases before continuing.
INSERT INTO measurements (compound, metric_name, measured_value) VALUES
  ('Cc1ccc(-c2nnc(C(=O)N3CCc4[nH]cnc4[C@@H]3c3cc4ccccn4n3)o2)nc1 [Example 672]', 'AC50', '> 5000 nM'),
  ('CC(C)c1nnc(C(=O)N2CCc3[nH]cnc3[C@H]2c2cc3cccc(Cl)n3n2)o1 [Example 1488]', 'AC50', '< 500 nM'),
  ('Cn1cnc(-c2nnc(C(=O)N3CCc4[nH]cnc4[C@@H]3c3cc4cccc(Cl)n4n3)o2)c1 [Example 1098]', 'AC50', '> 5000 nM'),
  ('CC(C)(O)c1nc(C(F)(F)F)c(C(=O)N2CCc3[nH]cnc3[C@@H]2c2cc3ccccn3n2)o1 [Example 629]', 'AC50', '1000 to 5000 nM'),
  ('Cn1nccc1-c1nnc(C(=O)N2CCc3[nH]cnc3[C@H]2c2cc3c(F)cccn3n2)o1 [Example 1018]', 'AC50', '< 500 nM');

For record CC(C)(O)c1nc(C(F)F)c(C(=O)N2CCc3[nH]cnc3[C@@H]2c2cc3c(F)cccn3n2)o1 [Example 715] the listed AC50 is > 5000 nM

For record Cc1ccc2cc([C@@H]3c4nc[nH]c4CCN3C(=O)c3nnc(-c4ccccn4)o3)nn2c1 [Example 812] the listed AC50 is 500 to 1000 nM

For record O=C(c1nnc(-c2ccn(C(F)F)n2)o1)N1CCc2[nH]cnc2[C@H]1c1cc2cccc(C(F)F)n2n1 [Example 1442] the listed AC50 is < 500 nM

For record O=C(c1oc(C2(O)CC2)nc1C(F)F)N1CCc2[nH]cnc2[C@H]1c1cc2cccc(C(F)(F)F)n2n1 [Example 1268] the listed AC50 is < 500 nM

For record CC(C)(C)c1nnc(C(=O)N2CCc3[nH]cnc3[C@H]2c2cc3cccc(Cl)n3n2)o1 [Example 1123] the listed AC50 is < 500 nM

For record Cc1cc(-c2nnc(C(=O)N3CCc4[nH]cnc4[C@H]3c3cc4c(C(F)F)cccn4n3)o2)nn1C [Example 1531] the listed AC50 is < 500 nM

For record O=C(c1nnc(-c2ccn(C(F)F)n2)o1)N1CCc2[nH]cnc2[C@@H]1c1cc2cccc(F)n2n1 [Example 1404] the listed AC50 is 1000 to 5000 nM

For record Cn1cncc1-c1nc(C(F)F)c(C(=O)N2CCc3[nH]cnc3[C@@H]2c2cc3c(F)cccn3n2)o1 [Example 888] the listed AC50 is > 5000 nM

For record Cc1cccc2cc([C@@H]3c4nc[nH]c4CCN3C(=O)c3nc(Cl)nn3C)nn12 [Example 1086] the listed AC50 is < 500 nM
